- target.under.test: ISG20L2 (interferon-stimulated 20 kDa exonuclease-like 2) (Homo sapiens)
- Construct: recombinant human ISG20L2 (rISG)
- Sequence (Q9H9L3 whole entry): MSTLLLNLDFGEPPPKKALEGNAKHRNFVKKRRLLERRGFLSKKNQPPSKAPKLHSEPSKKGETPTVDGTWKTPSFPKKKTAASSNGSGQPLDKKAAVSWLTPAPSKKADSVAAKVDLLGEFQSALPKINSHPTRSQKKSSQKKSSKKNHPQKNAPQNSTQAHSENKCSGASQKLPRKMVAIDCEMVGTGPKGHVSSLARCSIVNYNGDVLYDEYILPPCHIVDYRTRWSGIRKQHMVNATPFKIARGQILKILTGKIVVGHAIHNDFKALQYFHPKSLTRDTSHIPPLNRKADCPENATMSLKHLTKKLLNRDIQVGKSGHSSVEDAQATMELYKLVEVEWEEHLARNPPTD
- run.description: SPR (Biacore X100, ISG20L2 immobilized on CM5 chip)
attribute.measured: pKd
When answering, recall that pKd equals minus log10 of the concentration in mol/L, and write that number alone.

• CC(C)C[C@H](NC(=O)[C@H](Cc1ccccc1)NC(=O)c1cnccn1)B(O)O = 4.57

Let's switch to this molecule now.
Answer with reported pKd of "CC(C)C[C@H](NC(=O)[C@H](CCc1ccccc1)NC(=O)CN1CCOCC1)C(=O)N[C@@H](Cc1ccccc1)C(=O)N[C@@H](CC(C)C)C(=O)[C@@]1(C)CO1"
5.06
